# Tested on: MAGI cells cytotoxicity, 2% serum, % cell control
# ASSAY_METHOD_TEXT: MAGI cell cytotoxicity, R5 antiviral format, dose response, cytotoxicity control for HIV-1 antiviral lead project, CCR5-tropic MAGI assay, 2% serum, set 4 (AID 504576)
OUTCOME_MEASURE: CC50

Task item: What does the data say about its CC50? Entry: `COc1ccccc1Cn1c(O)cc2nn(-c3nc4ccccc4s3)c(=O)c-2c1C`
Reply: 43.2 µM

Task item: For the compound `COc1ccc(Cn2c(O)cc3nn(-c4nc5ccccc5s4)c(=O)c-3c2C)cc1` , what CC50 is on record?
Reply: 41.1 µM

Task item: Please give the measured CC50 for this compound: `COc1ccc(CCn2c(O)cc3nn(-c4nc5ccccc5s4)c(=O)c-3c2C)cc1`
Reply: 13.8 µM

Task item: Sample `Cc1c2c(=O)n(-c3nc4ccccc4s3)nc-2cc(O)n1Cc1ccccc1Cl` — what was its CC50?
Reply: 32.9 µM

Task item: Item under review: `Cc1c2c(=O)n(-c3nc4ccccc4s3)nc-2cc(O)n1CCc1cccs1` . Reported CC50?
Reply: 74.8 µM

Task item: Can you share its CC50? I mean this compound: `Cc1c2c(=O)n(-c3nc4ccccc4s3)nc-2cc(O)n1CCC(C)C`
Reply: 65 µM

Task item: Field request: CC50 | item: `Cc1c2c(=O)n(-c3nc4ccccc4s3)nc-2cc(O)n1CCc1ccc(O)cc1`
Reply: 20.5 µM
